Field: melting point. Provide a value for each of the compounds that follow.
Counter-ions that a name gives are not always drawn.

The recorded melting point for entry Cn1cc(C(=O)c2cccc3ccccc23)cc1C(=O)CN1CCCCC1 (as salt: HCl) [Cpd 4] equals 246 to 248 °C

The recorded melting point for entry CCN(CC)CC(=O)c1cc(C(=O)c2cccs2)n(C)c1 (as salt: salt) [Cpd 10] equals 153 to 155 °C

The recorded melting point for entry CCN(CC)CC(=O)c1cc(C(=O)c2ccc3ccccc3c2)cn1C (as salt: fumarate) [Cpd 1] equals 130 to 132 °C

The recorded melting point for entry CC(N(C)C)n1cc(C(=O)c2ccc3ccccc3c2)cc1C(=O)CN1CCCCC1 (centres unmarked) (as salt: HCl) [Cpd 5] equals 239 to 242 °C

The recorded melting point for entry Cn1cc(C(=O)CN2CCCCC2)cc1C(=O)c1cccs1 [Cpd 11] equals 178 to 179 °C

The recorded melting point for entry CCN(CC)CC(=O)c1cc(C(=O)c2cccnc2)n(C)c1 (as salt: HCl) [Cpd 12] equals 158 to 160 °C (dec.)

The recorded melting point for entry CCN(CC)CC(=O)c1cc(C(=O)c2ccc3ccccc3c2)n(C)c1 (as salt: HCl) [Cpd 13] equals 195 to 196 °C

The recorded melting point for entry CCC(N(C)C)n1cc(C(=O)CN2CCCCC2)cc1C(=O)c1ccc(Cl)cc1 (centres unmarked) (as salt: HCl) [Cpd 14] equals 138 to 141 °C

The recorded melting point for entry Cn1cc(C(=O)CCN2CCCCC2)cc1C(=O)c1cccc2ccccc12 (as salt: HCl) [Cpd 8] equals 141 to 143 °C

The recorded melting point for entry Cn1cc(C(=O)c2ccc3ccccc3c2)cc1C(=O)CN1CCCCC1 (as salt: HCl) [Cpd 17] equals 246 to 248 °C

The recorded melting point for entry CCN(CC)CC(=O)c1cc(C(=O)c2cccs2)cn1C (as salt: HCl) [Cpd 2] equals 196 to 198 °C

The recorded melting point for entry CCCOn1cc(C(=O)CN(CC)CC)cc1C(=O)c1ccc(Cl)cc1 (as salt: HCl) [Cpd 9] equals 149 to 151 °C

The recorded melting point for entry CCSCn1cc(C(=O)CN(CC)CC)cc1C(=O)c1ccccc1Cl (as salt: HCl) [Cpd 16] equals 157 to 158 °C

The recorded melting point for entry CCN(CC)CC(=O)c1cc(C(=O)c2cccc3ccccc23)cn1C (as salt: HCl) [Cpd 3] equals 222 to 224 °C

Reference source: patent US6573267B2
